test system: Mycosphaerella graminicola; anamorph: Septoria tritici; Bayer code SEPTTR; experiment: Fungicidal activity against leaf blotch of wheat, three-day curative (3 DC); assay type: in vivo; conditions: Zymoseptoria tritici, 72 h, wheat plants (variety Yuma), rating of % disease control
test.readout: pest or weed control at 100 ppm

COc1ccc(S(=O)(=O)n2cc(F)c(=N)n(Cc3ccccc3)c2=O)cc1 ... 0 to 25%
Cn1c(=N)c(F)cn(S(=O)(=O)c2ccccc2)c1=O ... 76 to 100%
Cn1c(=N)c(F)cn(S(=O)(=O)c2cccs2)c1=O ... 76 to 100%
CCn1c(=N)c(F)cn(S(=O)(=O)c2ccccc2)c1=O ... 0 to 25%
CCn1c(=N)c(F)cn(S(=O)(=O)c2ccc(Cl)cc2)c1=O ... 76 to 100%
Cn1c(=N)c(F)cn(S(=O)(=O)c2ccc(Cl)cc2)c1=O ... 76 to 100%
COc1ccc(S(=O)(=O)n2cc(F)c(=N)n(C)c2=O)cc1 ... 76 to 100%
CCn1c(=N)c(F)cn(S(=O)(=O)c2ccc(OC)cc2)c1=O ... 51 to 75%
CCn1c(=N)c(F)cn(S(=O)(=O)c2c(Cl)cccc2Cl)c1=O ... 76 to 100%

###

Consider the following compounds and their measured melting point readings.
test.readout: melting point

CCn1c(=N)c(F)cn(S(=O)(=O)c2ccc(OC)cc2)c1=O ... 107 to 111 °C
CCn1c(=N)c(F)cn(S(=O)(=O)c2c(Cl)cccc2Cl)c1=O ... 182 to 185 °C
Cn1c(=N)c(F)cn(S(=O)(=O)c2cccs2)c1=O ... 136 to 139 °C
CCn1c(=N)c(F)cn(S(=O)(=O)c2ccccc2)c1=O ... 163 to 166 °C
COc1ccc(S(=O)(=O)n2cc(F)c(=N)n(C)c2=O)cc1 ... 158 to 162 °C
Cn1c(=N)c(F)cn(S(=O)(=O)c2ccccc2)c1=O ... 144 °C
CCn1c(=N)c(F)cn(S(=O)(=O)c2ccc(Cl)cc2)c1=O ... 165 to 168 °C
Cn1c(=N)c(F)cn(S(=O)(=O)c2ccc(Cl)cc2)c1=O ... 147 to 150 °C
